target_entity: hGLP1R (Homo sapiens, UniProt P43220)
Construct: expressed in transfected cells; host or cells: HEK-293 cells carrying a CRE-luciferase reporter gene
Sequence (P43220 24-463): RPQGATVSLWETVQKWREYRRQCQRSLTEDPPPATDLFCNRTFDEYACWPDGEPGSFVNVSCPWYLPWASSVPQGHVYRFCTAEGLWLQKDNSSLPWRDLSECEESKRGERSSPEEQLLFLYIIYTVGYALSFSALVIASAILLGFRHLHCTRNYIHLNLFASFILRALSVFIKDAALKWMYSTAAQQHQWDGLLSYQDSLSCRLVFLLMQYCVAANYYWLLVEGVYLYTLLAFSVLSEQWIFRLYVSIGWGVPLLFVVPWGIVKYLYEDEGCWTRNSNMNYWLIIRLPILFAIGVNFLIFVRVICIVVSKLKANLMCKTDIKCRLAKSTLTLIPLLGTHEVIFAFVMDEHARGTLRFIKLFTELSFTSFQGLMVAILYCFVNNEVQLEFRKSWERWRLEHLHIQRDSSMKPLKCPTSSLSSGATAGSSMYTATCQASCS
experiment_description: hGLP1R CreLuc reporter gene assay in 0.5% and 100% plasma
Format: cell-based
stated_conditions: hGLP1R 100% hP, CreLuc reporter gene assay, 100% human plasma
Starred links: 1 amine or outer side, 2 acyl side, 3 side chain; linkers in the order of their positions; H or OH if unused. Non-standard residues stand in square brackets, D forms with d. Groups on a side chain read outwards from the residue. *: point of attachment. C20 diacid = O=C(O)CCCCCCCCCCCCCCCCCCC(=O)*; γGlu = O=C(O)[C@H](CCC(=O)[*:2])N[*:1]; εLys = N[C@@H](CCCCN[*:1])C(=O)[*:2]; Aib = CC(C)(N)C(=O)O
readout: pEC50
// pEC50 is dimensionless: -log10 of concentration (M)

Name the recorded pEC50 for H-Y[Aib]EGTFTSDLSI[Aib]LEKQAQ[Aib]AFVEWLIK([εLys-γGlu-γGlu-γGlu-γGlu-γGlu-γGlu-C20 diacid])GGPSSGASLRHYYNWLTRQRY-NH2 [Compound 172] .
8.70

====

Known EC50 of a selection of substances
target_entity: hGIPR (Homo sapiens)
Construct: expressed in transfected cells; host or cells: CHO cells carrying a CRE-luciferase reporter gene
Sequence (P48546 22-466): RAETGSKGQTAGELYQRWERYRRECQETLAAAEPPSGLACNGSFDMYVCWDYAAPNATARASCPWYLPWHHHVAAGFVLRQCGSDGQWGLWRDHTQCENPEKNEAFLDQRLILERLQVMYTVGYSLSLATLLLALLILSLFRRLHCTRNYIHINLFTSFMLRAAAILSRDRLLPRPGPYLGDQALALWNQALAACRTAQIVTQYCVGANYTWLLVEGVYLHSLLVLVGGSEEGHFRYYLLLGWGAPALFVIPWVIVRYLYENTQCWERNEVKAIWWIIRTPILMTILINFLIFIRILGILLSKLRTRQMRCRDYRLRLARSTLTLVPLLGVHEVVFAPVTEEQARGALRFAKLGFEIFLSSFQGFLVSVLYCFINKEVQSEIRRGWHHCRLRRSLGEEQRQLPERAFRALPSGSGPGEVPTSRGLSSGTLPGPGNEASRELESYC
experiment_description: hGIPR CreLuc reporter gene assay in 0.5% and 100% plasma
Assay type: cell-based
stated_conditions: CreLuc reporter gene assay, 0.5% human plasma; read-out: hGIPR 0.5% hP
Starred links: 1 amine or outer side, 2 acyl side, 3 side chain; linkers in the order of their positions; H or OH if unused. Non-standard residues stand in square brackets, D forms with d. Groups on a side chain read outwards from the residue. *: point of attachment. C20 diacid = O=C(O)CCCCCCCCCCCCCCCCCCC(=O)*; C18 diacid = O=C(O)CCCCCCCCCCCCCCCCC(=O)*; γGlu = O=C(O)[C@H](CCC(=O)[*:2])N[*:1]; εLys = N[C@@H](CCCCN[*:1])C(=O)[*:2]; AEEA = NCCOCCOCC(=O)O; Aib = CC(C)(N)C(=O)O
Response body: numeric value in nM, unit text excluded.

# count of solved cases: 6
substance	target_entity	observed
H-Y[Aib]EGTFTSDYSI[Aib]LEKQAQ[Aib]AFVEWLIK([εLys-γGlu-γGlu-γGlu-γGlu-γGlu-γGlu-C20 diacid])GGPSSGASLRHYY[Aib]WLTRQRY-NH2 [Compound 213]	hGIPR (Homo sapiens)	0.34
H-Y[Aib]EGTFTSDYSI[Aib]LEDQAQ[Aib]AFVEWLIK([εLys-γGlu-γGlu-γGlu-γGlu-γGlu-γGlu-C20 diacid])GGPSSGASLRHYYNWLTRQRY-NH2 [Compound 90]	hGIPR (Homo sapiens)	1.03
H-Y[Aib]EGTFTSDYSI[Aib]LEEEAQ[Aib]AFVQWLIK([εLys-εLys-γGlu-γGlu-γGlu-γGlu-γGlu-C20 diacid])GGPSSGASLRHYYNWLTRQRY-NH2 [Compound 7]	hGIPR (Homo sapiens)	0.23
H-Y[Aib]EGTFTSDYSI[Aib]LEKQAQ[Aib]AFVQWLIK([AEEA-AEEA-γGlu-γGlu-γGlu-γGlu-C18 diacid])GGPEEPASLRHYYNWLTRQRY-NH2 [Compound 57]	hGIPR (Homo sapiens)	0.18
H-Y[Aib]EGTFTSDYSI[Aib]LELQAQ[Aib]AFVEWLIK([εLys-γGlu-γGlu-γGlu-γGlu-γGlu-γGlu-C20 diacid])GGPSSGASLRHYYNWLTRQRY-NH2 [Compound 209]	hGIPR (Homo sapiens)	0.81
H-Y[Aib]EGTFTSDYSI[Aib]LEKQAQ[Aib]AFVEWLIK([εLys-γGlu-γGlu-γGlu-γGlu-γGlu-γGlu-C20 diacid])GGPSSGAS[Aib]RHYYNWLTRQRY-NH2 [Compound 118]	hGIPR (Homo sapiens)	0.06

Name the recorded EC50 for H-Y[Aib]EGTFTSDYSI[Aib]LEKQAQ[Aib]EFVEWLIK([AEEA-AEEA-γGlu-γGlu-γGlu-γGlu-C18 diacid])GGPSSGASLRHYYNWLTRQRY-NH2 [Compound 145] .
0.28

Name the recorded EC50 for H-Y[Aib]EGTFTSDYSI[Aib]LEKQAQ[Aib]AFVEWLIK([εLys-γGlu-γGlu-γGlu-γGlu-γGlu-γGlu-C20 diacid])GGPSSGQS[Aib]RHYYNWLTRQRY-NH2 [Compound 44] .
0.05

Name the recorded EC50 for H-Y[Aib]EGTFTSDYSI[Aib]LEKQAQ[Aib]AFVEWLIK([εLys-γGlu-γGlu-γGlu-γGlu-γGlu-γGlu-C20 diacid])GGPSSGASIRHYYNWLTRQRY-NH2 [Compound 132] .
0.22

Name the recorded EC50 for H-Y[Aib]EGTFTSDYSI[Aib]LDKQAQ[Aib]AFVEWLIK([εLys-γGlu-γGlu-γGlu-γGlu-γGlu-γGlu-C20 diacid])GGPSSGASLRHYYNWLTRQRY-NH2 [Compound 128] .
0.11

Measured values drawn from patent US20240247080A1 for this set.
